# SYSTEM: Dual specificity tyrosine-phosphorylation-regulated kinase 1A (Rattus norvegicus, UniProt Q63470)
# Assay type: biochemical, Homo sapiens
Activity calls are given as the source filed them.
QUANTITY KIND: AC50

For orientation, consider the following solved cases.
COMPOUND SMILES | AC50
O=C1NC(=S)S/C1=C/c1ccc(OC(=O)c2ccco2)cc1 | 4.1 µM (active)
CCc1nc(Nc2cccc(O)c2)c2oc3ccccc3c2n1 | 9.77 µM (active)
COc1ccc2c(c1)c(=O)oc1c(C)c(OCc3cc(C(=O)O)oc3C)ccc12 | 1.51 µM (active)

Q) Entry CC(=O)N(/N=C1\Sc2ccccc2C1=O)c1cccc(C)c1 has what AC50?
A) 28.1 µM (active)

---

As shown below, each of these molecules has a reported IC50 value.
# SYSTEM: Genome polyprotein (dengue virus type 2, UniProt P29990)
# Sequence (P29990 2492-3391 limits assumed): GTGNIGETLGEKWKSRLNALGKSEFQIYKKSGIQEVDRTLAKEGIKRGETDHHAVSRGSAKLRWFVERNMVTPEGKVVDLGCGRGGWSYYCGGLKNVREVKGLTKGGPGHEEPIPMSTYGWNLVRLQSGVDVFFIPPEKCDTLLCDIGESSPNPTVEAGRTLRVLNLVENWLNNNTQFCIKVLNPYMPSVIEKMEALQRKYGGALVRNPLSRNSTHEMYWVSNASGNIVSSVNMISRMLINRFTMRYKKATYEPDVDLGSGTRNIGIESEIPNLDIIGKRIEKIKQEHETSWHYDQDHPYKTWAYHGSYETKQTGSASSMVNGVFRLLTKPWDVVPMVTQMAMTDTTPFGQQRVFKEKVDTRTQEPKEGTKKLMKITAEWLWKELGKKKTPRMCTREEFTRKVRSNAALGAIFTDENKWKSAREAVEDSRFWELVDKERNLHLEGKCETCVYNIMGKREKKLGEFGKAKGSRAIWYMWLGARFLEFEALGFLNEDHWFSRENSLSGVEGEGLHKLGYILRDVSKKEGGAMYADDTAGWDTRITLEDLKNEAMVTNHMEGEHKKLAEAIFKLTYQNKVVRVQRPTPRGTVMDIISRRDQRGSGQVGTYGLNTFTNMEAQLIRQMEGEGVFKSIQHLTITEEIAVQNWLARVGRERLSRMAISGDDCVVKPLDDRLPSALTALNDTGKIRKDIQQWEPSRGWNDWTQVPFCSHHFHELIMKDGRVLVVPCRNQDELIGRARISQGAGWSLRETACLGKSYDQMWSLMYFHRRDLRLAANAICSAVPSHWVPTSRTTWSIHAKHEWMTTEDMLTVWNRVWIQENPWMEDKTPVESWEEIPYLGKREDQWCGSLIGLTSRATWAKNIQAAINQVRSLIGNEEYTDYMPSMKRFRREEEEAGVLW
# PROTOCOL NOTES: Dengue-2 NS5 methyltransferase inhibitors, primary screen, biochemical, confirmation dose response (AID 588689)
# Type: functional
Active and inactive are the calls of the source.

In the examples that follow, each entry is paired with its recorded IC50.
COMPOUND SMILES | IC50
COc1ccccc1N1C(=O)NC(=O)/C(=C\c2cnn(-c3ccccc3)c2)C1=O | > 100 µM (active)
Cc1ccc(/C=C2\SC(NS(=O)(=O)c3cccs3)=NC2=O)cc1 | 71.5 µM (active)
CSc1nnc(NC(=O)c2nc(S(=O)(=O)Cc3ccccc3F)ncc2Cl)s1 | 52.3 µM (active)
COC(=O)CSC1=NS(=O)(=O)c2ccccc21 | 23.2 µM (active)

Q) Would you mind telling me what IC50 value was observed for CCOC(=O)c1c(NC(=O)/C=C/C(=O)O)sc(C)c1-c1ccc(C)c(C)c1 ?
A) 75.1 µM (active)

---

Listing: EC50 of selected compounds
# SYSTEM: RNA-binding protein pos-1 (Caenorhabditis elegans, UniProt G5EF15)
# Sequence (G5EF15 whole entry, the tested form may be a part): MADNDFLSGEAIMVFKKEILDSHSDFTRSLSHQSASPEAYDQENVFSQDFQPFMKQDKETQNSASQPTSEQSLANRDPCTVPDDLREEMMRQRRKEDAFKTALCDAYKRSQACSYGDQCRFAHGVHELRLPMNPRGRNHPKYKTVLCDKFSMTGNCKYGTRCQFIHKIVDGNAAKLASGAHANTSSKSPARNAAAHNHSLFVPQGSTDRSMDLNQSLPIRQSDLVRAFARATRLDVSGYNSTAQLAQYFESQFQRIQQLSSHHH
# PROTOCOL NOTES: inhibitors of POS-1/mex-3 RNA binding, dose response, biochemical, fluorescence polarization (AID 1964);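 also: purified POS-1 fused to maltose binding protein made in E. coli; potency of compounds blocking POS-1 binding to fluorescent RNA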
Calls of active or inactive are those of the source.

Some compounds with recorded EC50:
COMPOUND | SYSTEM | EC50
CCOC(=O)N1CCC(NC(=O)C(Cc2ccccc2)NC(=O)C2CCCCC2)CC1 (stereo not given) | RNA-binding protein pos-1 (Caenorhabditis elegans, UniProt G5EF15) | > 300 µM (not active)
O=C(NCCOc1ccccc1)C1Nc2ccc(OC(F)(F)F)cc2C2C=CCC12 (stereo not given) | RNA-binding protein pos-1 (Caenorhabditis elegans, UniProt G5EF15) | > 300 µM (not active)
COC(=O)C1=NN(C(=O)c2ccc(C)cc2)C(O)(c2ccc(Cl)cc2)C1 (stereo not given) | RNA-binding protein pos-1 (Caenorhabditis elegans, UniProt G5EF15) | > 300 µM (not active)
S=C(NCc1ccncc1)Nc1ccc(Cl)cc1Cl | RNA-binding protein pos-1 (Caenorhabditis elegans, UniProt G5EF15) | > 300 µM (not active)
COC(=O)c1cc(C(=O)OC)cc(-n2c(C)cc(C=O)c2C)c1 | RNA-binding protein pos-1 (Caenorhabditis elegans, UniProt G5EF15) | 78.7 µM (active)
O=c1/c(=C\c2ccc(O)cc2)sc2nc(-c3ccccc3)c(-c3ccccc3)n12 | RNA-binding protein pos-1 (Caenorhabditis elegans, UniProt G5EF15) | > 300 µM (not active)
CCn1c(/C=C/c2ccc([N+](=O)[O-])o2)nc2ccccc2c1=O | RNA-binding protein pos-1 (Caenorhabditis elegans, UniProt G5EF15) | 5.46 µM (inconclusive)
Cc1nn2c(N3CCOCC3)c3c(nc2c1-c1ccccc1)CCCC3 | RNA-binding protein pos-1 (Caenorhabditis elegans, UniProt G5EF15) | > 300 µM (not active)

Q) Consider the compound shown here: CCOC(=O)c1cc(=O)n2nc(-c3ccc(C)cc3)nc2s1 What is its recorded EC50?
A) > 300 µM (not active)

Q) Any idea what EC50 was measured for O=C1CNC(=S)N1CCc1ccc(O)c(O)c1 ?
A) > 300 µM (not active)

Provenance of the data: ChEMBL document CHEMBL1201862
